Source of measurements: ChEMBL document CHEMBL3988442

target: AMP-activated protein kinase, AMPK (Homo sapiens) (UniProt P54646+O43741+P54619+Q9UGJ0+Q9Y478+Q13131+Q9UGI9); experiment: AMP-dependent Kinase enzyme assay. An in vitro enzyme assay that detects ADP turnover that is directly proportional to AMPK activity. This uses naive AMPK that is activated during the assay with MK-8722; format: functional; parameters: scale not given: direction of the effect not stated beside the values; details: 30 µM

compound | unitText | Percent Effect
CCC(CNC(=O)CCn1cncn1)N1CCc2ccccc2C1 (stereo unspecified) | % | 1.86
Cc1ccc(C(=O)NC2CCN(C(C)C)C2)c(=O)[nH]1 (stereo unspecified) | % | -2.69
O=C(Nc1ccc(Br)cc1F)c1ccc(N2CCOCC2)nn1 | % | -1.73
C[C@@H]1CN(C(=O)C2(Cn3cccn3)CC2)CC[C@@]1(O)C1CC1 | % | -6.74
CN(Cc1cc(Br)cn1C)C(=O)c1cccnc1 | % | -0.766
N#CC1(NC(=O)c2c(F)ccc(OC(F)F)c2F)CCOCC1 | % | -2.32
COC(=O)C(NC(=O)c1ccc(C)cc1C)c1cccnc1 (stereo unspecified) | % | 2.32
Cc1nc(O)cc(CN2C[C@H](NS(=O)(=O)N(C)C)[C@@H](C3CC3)C2)n1 | % | -5.32
CC(C)[C@H]1CN(Cc2ccccn2)C[C@@H]1NC(=O)CCS(C)(=O)=O | % | 9.37
O=C(COCC1CCCO1)N(Cc1cccnc1)c1ccc(F)cc1 (stereo unspecified) | % | -8.95
CCCc1ccc(CN2CCC3(CC2)CNC(=O)C3)o1 | % | 18.2
